# assayedTarget: dNCS-1 (Drosophila melanogaster)
# Sequence (Q9VWX8 1-187): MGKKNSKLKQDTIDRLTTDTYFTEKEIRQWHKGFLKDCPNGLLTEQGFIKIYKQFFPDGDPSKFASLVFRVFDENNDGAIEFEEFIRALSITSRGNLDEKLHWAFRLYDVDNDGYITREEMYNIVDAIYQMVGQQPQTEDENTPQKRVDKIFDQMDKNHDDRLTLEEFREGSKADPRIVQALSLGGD
# experiment: Affinity for dNCS-1 by fluorescence spectroscopy
# Assay type: binding
# measurementParameters: apparent dissociation constant; 5°C, 50 mM Tris buffer pH 7.9, 125 mM NaCl, 0.5 mM CaCl2, 5% DMSO; excitation 295 nm, emission 345 nm; three repetitions; read-out: Kd
pKd: −log10 of the molar value.
assayMetric: pKd

Illustrative cases are given below, each with its answer.
[
  {
    "molecule": "O=C(N/N=C\\c1ccc(Cl)c([N+](=O)[O-])c1)c1ccco1",
    "pKd": 5.49
  },
  {
    "molecule": "O=C(N/N=C/c1cc([N+](=O)[O-])ccc1F)c1ccco1",
    "pKd": 5.15
  },
  {
    "molecule": "O=C(NN=Cc1ccc(Cl)c([N+](=O)[O-])c1)C(O)c1ccccc1 (stereo not shown)",
    "pKd": 5.49
  },
  {
    "molecule": "O=C(NN=Cc1cc(F)ccc1[N+](=O)[O-])c1cccs1 (mixture of isomers)",
    "pKd": 5.40
  },
  {
    "molecule": "O=C(N/N=C/c1ccc([N+](=O)[O-])c(O)c1)c1ccco1",
    "pKd": 4.49
  }
]

a. O=C(Cc1c[nH]c2ccccc12)NN=Cc1ccc([N+](=O)[O-])c(O)c1 (mixture of isomers)
b. O=C(N/N=C/c1cc(F)ccc1[N+](=O)[O-])c1ccco1
Input: Could you check which of a and b has a smaller value for pKd? Response format: the label of the selected entry.
Output: a
(a: 4.37, b: 4.60)

* * *

# assayedTarget: dNCS-1 (Drosophila melanogaster, UniProt Q9VWX8)
# experiment: Affinity for dNCS-1 by fluorescence spectroscopy
# Assay type: binding
assayMetric: pKd
The scale used: pKd is minus the common logarithm of the concentration in molar units.

Input: I'd like to know its pKd. The compound in question is O=C(NN=Cc1ccc(Cl)c([N+](=O)[O-])c1)c1cccs1 (mixture of isomers)
Output: 4.72
